Biological target: Lysine-specific demethylase 4C (Homo sapiens, UniProt Q9H3R0)
Sequence (Q9H3R0 whole entry): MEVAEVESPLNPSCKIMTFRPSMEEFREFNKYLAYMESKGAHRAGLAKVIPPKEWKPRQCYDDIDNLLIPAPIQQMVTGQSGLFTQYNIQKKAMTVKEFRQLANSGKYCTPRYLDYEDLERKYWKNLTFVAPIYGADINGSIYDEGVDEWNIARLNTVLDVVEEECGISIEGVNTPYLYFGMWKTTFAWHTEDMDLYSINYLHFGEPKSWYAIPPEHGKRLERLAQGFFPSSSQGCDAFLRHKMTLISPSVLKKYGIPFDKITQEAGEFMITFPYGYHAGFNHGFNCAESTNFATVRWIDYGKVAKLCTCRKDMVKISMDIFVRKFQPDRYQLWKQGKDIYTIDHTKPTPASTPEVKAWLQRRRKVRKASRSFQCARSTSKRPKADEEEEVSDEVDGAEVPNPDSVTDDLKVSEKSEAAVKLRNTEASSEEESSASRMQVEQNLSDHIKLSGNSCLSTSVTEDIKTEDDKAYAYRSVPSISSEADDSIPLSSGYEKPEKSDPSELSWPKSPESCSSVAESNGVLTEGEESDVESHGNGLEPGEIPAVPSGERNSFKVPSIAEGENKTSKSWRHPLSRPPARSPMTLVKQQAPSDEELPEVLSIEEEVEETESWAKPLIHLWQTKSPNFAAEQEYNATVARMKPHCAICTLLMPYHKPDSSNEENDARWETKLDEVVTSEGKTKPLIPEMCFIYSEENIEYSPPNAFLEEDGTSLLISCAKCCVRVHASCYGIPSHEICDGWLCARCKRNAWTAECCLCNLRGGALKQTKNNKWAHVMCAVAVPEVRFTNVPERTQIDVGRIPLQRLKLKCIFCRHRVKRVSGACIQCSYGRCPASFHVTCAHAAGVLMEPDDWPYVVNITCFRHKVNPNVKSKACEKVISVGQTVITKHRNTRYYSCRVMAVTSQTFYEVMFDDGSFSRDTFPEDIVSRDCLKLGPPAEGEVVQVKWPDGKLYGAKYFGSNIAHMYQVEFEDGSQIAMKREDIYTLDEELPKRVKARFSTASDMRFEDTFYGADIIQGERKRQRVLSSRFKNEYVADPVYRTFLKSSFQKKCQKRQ
Assay: inhibition of JMJD2C H3K9me3 demethylation – biochemical, DELFIA europium, cherry-picked samples, dose response (AID 488835)
Assay type: functional
Active and inactive are the calls of the source.
recordedEndpoint: AC50

// worked examples, AC50 included
INSERT INTO results (molecule, recordedendpoint, reportedresult) VALUES
  ('CCOC(=O)c1c(C)n(C)c2ccc(O)c(S(=O)(=O)c3ccccc3)c12', 'AC50', '9.92 µM (active)'),
  ('CCC(C)N=C(S)N1CCN(C)CC1 (centres undefined)', 'AC50', '26.5 µM (active)'),
  ('CC(C)(C)c1ccc(-c2csc(NNC3=NCCCCC3)n2)cc1', 'AC50', '22.3 µM (active)');

Consider now this further molecule.
Query: Item under review: O=S(=O)(c1ccc2nc(Nc3ccccc3)ccc2c1)N1CCCCC1 . Reported AC50?
Result: 6.53 µM (active)

###

IC50 listing for selected molecules.
Target: Prothrombin (Homo sapiens, UniProt P00734)
Assay: Thrombin 1536 HTS Dose Response Confirmation. [Related pubchem assays: 1046 (Thrombin 1536 HTS; hits were confirmed in this assay)]
Assay type: functional
Calls of active or inactive are those of the source.

// worked examples, IC50 included
INSERT INTO assay_data (smilesstring, reportedresult) VALUES
  ('COC(=O)Cc1ccc(NC(=S)N2CCN(c3ccc(F)cc3)CC2)cc1', '> 50 µM (not active)'),
  ('O=C(c1cccnc1)n1nc(-c2ccco2)nc1NCc1cccs1', '0.001 µM (active)'),
  ('Cc1ccc(OCc2nnc(S)n2N)cc1C', '> 50 µM (not active)'),
  ('Nc1nc(-c2cccnc2)nn1C(=O)c1ccc(Cl)cc1', '0.781 µM (active)');

Consider now this further molecule.
Query: Item under review: CC(C)Nc1nc(C#N)nc(NC(C)C)n1 . Reported IC50?
Result: 23 µM (active)

###

Target: Cysteine protease ATG4B (Homo sapiens, UniProt Q9Y4P1);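 also: Fluorescence-based dose-response confirmation assay measuring inhibition of ATG4B activity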
Sequence (Q9Y4P1 whole entry): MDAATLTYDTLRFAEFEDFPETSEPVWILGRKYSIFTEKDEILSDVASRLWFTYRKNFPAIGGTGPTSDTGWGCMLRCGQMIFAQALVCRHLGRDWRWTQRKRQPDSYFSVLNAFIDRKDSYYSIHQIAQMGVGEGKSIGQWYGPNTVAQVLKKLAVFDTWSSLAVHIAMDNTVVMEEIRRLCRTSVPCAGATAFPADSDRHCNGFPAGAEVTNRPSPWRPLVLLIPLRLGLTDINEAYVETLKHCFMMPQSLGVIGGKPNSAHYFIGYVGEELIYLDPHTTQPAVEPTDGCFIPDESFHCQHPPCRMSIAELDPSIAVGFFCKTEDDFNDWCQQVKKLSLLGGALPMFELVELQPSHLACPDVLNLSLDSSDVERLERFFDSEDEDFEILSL
Assay type: functional
The source made the active and inactive calls.
IC50 listing for selected compounds.

// worked examples, IC50 included
INSERT INTO measurements (smilesstring, reportedresult) VALUES
  ('NC(=O)c1sc2nc3c(c(-c4ccccc4)c2c1N)CCC3', '12.3 µM (active)'),
  ('N=C(N)c1ccc(/N=N/c2c(O)ccc3c2[nH]c2ccccc23)cc1', '5.61 µM (active)'),
  ('CN(C)c1cccc(C(=O)n2cc(C(=O)c3cc(F)ccc3O)cn2)c1', '7.59 µM (active)');

Query: Item under review: CC(C)(C)c1nc(SCC(=O)c2ccccc2)c2ccccc2n1 . Reported IC50?
Result: 15.8 µM (active)

###

EC50 listing for selected compounds.
Experiment: Luminescence Cell-Based Dose Confirmation HTS to Identify Inhibitors of Platelet Dense Granule Release. [Related pubchem assays: 1663 (Primary HTS), 1678 (Summary of Project)]
Format: functional
Calls of active or inactive are those of the source.

// worked examples, EC50 included
INSERT INTO measurements (compound, recordedendpoint, reportedresult) VALUES
  ('COC(=O)C(C)Sc1nc2c(c(=O)[nH]c(=O)n2C)n1CCCc1ccccc1 (centres undefined)', 'EC50', '6.52 µM (active)'),
  ('O=C(/C=C\Nc1ccc2c(c1)OCO2)c1ccccn1', 'EC50', '3.3 µM (active)'),
  ('O=C(NC1CCCC1)C(c1ccco1)N(Cc1ccccc1)C(=O)c1csnn1 (centres undefined)', 'EC50', '> 112 µM (not active)');

Consider now this further compound.
Query: Item under review: CC/C(C)=N\N=C\c1c(O)n(CC)c2cc(C3=NNC(=O)CC3)ccc12 . Reported EC50?
Result: 6.14 µM (active)
